All figures here come from the supplement of paper PMC6555819.

# Tested on: RARg:RXRa (NR concentration 270 nM, RXRa partner concentration 90 nM)
# experimental.protocol: PBM binding z-score (relative to random genomic background probes); higher = stronger binding; sequences stand for … in GC…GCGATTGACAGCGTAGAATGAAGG
Response field class: enum, chosen by comparing PBM binding z-score against band 1 (below 0.9), band 2 (0.9 to below 3), band 3 (3 or more)

Solved cases (8 shown):
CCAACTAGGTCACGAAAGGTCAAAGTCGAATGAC :: band 3
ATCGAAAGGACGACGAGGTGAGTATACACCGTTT :: band 2
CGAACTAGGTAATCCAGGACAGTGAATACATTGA :: band 1
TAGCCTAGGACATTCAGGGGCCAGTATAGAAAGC :: band 1
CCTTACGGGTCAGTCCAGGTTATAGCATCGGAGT :: band 3
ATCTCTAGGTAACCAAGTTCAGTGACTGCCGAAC :: band 1
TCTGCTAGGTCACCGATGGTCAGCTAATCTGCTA :: band 3
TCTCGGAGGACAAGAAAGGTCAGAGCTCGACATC :: band 3

# evaluate next
IN: Record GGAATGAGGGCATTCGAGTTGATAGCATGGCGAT — which class?
OUT: band 2

---

Kindly supply the reported PBM binding z-score values for the records listed here.
# Tested on: PPARg:RXRa IVT, anti-PPARg (NR concentration 270 nM, RXRa partner concentration 90 nM)
# experimental.protocol: PBM binding z-score (relative to random genomic background probes); higher = stronger binding; sequences stand for … in GC…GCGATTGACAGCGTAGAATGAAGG
Answers are plain numbers.

Some sequences with known PBM binding z-score results, for comparison:
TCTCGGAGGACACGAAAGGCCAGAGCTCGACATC :: -0.0515
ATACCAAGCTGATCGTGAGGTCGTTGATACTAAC :: 0.0581
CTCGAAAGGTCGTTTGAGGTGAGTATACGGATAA :: 1.91
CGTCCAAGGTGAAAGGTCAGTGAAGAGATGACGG :: 5.2
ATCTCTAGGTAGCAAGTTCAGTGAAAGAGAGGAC :: 0.604
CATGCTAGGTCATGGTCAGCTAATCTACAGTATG :: 3.51
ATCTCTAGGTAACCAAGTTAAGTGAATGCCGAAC :: 2.78
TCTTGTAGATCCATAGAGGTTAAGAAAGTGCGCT :: 0.128

// each sequence listed below needs its PBM binding z-score
1. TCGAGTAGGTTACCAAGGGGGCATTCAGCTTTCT
2. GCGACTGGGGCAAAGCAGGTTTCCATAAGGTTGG

OUT:
[4.07, 3.02]

---

# Test system: PXR:RXRa (NR concentration 270 nM, RXRa partner concentration 90 nM)
# experimental.protocol: PBM binding z-score (relative to random genomic background probes); higher = stronger binding; sequences stand for … in GC…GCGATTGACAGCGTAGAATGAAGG
Kindly supply the reported PBM binding z-score values for the records listed here.
Answers are plain numbers.

// each sequence listed below needs its PBM binding z-score
1. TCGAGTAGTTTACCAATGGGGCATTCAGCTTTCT
2. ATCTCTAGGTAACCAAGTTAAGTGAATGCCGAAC

OUT:
[-0.0619, 0.282]

// each sequence listed below needs its PBM binding z-score
1. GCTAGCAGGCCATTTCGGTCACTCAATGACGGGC
2. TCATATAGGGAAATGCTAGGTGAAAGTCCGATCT
3. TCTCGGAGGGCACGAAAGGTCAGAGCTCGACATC
4. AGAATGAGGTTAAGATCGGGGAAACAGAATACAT
5. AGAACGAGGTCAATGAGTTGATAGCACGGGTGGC
6. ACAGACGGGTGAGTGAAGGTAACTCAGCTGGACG
7. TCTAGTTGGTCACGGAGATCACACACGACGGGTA

OUT:
-0.577
0.607
5.57
0.98
5.72
-0.343
0.363

---

# Tested on: RXRa homodimer (NR concentration 180 nM)
# experimental.protocol: PBM binding z-score (relative to random genomic background probes); higher = stronger binding; sequences stand for … in GC…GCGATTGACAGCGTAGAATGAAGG
measured.quantity: PBM binding z-score

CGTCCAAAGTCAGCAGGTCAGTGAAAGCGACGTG :: 0.851
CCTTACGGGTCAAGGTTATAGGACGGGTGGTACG :: 5.36
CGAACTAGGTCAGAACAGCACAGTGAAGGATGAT :: 1.28
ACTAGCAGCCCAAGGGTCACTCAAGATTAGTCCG :: 3.67
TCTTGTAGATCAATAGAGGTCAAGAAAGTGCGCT :: 4.46

// each sequence listed below needs its PBM binding z-score
1. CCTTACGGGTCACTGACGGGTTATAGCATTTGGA
2. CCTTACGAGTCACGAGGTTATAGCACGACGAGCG
3. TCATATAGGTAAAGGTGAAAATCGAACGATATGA
4. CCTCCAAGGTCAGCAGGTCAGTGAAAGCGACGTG
5. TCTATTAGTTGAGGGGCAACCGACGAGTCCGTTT

OUT:
1. 5.1
2. 1.8
3. 1.98
4. 4.21
5. 0.746

// each sequence listed below needs its PBM binding z-score
1. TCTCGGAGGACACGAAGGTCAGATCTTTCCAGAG
2. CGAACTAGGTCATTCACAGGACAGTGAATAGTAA
3. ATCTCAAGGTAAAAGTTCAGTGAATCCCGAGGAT
4. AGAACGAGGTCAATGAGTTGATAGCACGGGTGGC

OUT:
1: 2.48; 2: 2.55; 3: 2.21; 4: 6.03

// each sequence listed below needs its PBM binding z-score
1. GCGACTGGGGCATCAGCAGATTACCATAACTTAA
2. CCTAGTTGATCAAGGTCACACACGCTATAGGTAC

OUT:
1: -0.143; 2: 4.2

---

# System: LXRb homodimer (NR concentration 270 nM)
# experimental.protocol: PBM binding z-score (relative to random genomic background probes); higher = stronger binding; sequences stand for … in GC…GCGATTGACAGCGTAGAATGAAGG
Kindly supply the reported PBM binding z-score values for the records listed here.
Give bare numbers.

Some sequences with known PBM binding z-score results, for comparison:
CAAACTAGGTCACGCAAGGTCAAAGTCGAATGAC :: 1.72
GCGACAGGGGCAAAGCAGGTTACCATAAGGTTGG :: -0.988
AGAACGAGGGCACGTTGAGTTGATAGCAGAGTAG :: -0.789
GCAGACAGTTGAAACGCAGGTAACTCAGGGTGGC :: -0.589
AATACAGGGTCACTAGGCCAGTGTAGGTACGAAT :: 0.765
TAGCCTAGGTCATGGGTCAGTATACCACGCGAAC :: 0.339

Please look at the following sequence next.
IN: Hello, please tell me recorded PBM binding z-score for this one: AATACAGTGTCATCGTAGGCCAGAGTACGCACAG
OUT: -0.022

---

# Test system: VDR homodimer (NR concentration 270 nM)
# experimental.protocol: PBM binding z-score (relative to random genomic background probes); higher = stronger binding; sequences stand for … in GC…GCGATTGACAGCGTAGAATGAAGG
measured.quantity: PBM binding z-score

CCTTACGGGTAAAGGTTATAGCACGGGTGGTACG :: 0.43
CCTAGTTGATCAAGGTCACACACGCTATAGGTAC :: 4.32
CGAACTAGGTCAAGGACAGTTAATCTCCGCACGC :: 0.602

// each sequence listed below needs its PBM binding z-score
1. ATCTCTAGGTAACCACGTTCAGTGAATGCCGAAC
2. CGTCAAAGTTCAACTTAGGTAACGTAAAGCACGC
3. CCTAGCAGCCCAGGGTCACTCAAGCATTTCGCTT
4. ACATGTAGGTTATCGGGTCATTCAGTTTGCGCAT
5. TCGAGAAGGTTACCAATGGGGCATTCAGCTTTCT
6. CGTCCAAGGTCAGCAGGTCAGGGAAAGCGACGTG
7. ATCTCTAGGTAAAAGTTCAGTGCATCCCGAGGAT

OUT:
0.344
4.21
1.33
4.06
-0.528
1.53
2.21

---

# Tested on: PPARg DBDmut IVT, anti-PPARg (DBD mutation: PPARg1 K132A/R137A, NR concentration 270 nM)
# experimental.protocol: PBM binding z-score (relative to random genomic background probes); higher = stronger binding; sequences stand for … in GC…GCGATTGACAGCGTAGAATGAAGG
Kindly supply the reported PBM binding z-score values for the records listed here.
Numbers only.

Some sequences with known PBM binding z-score results, for comparison:
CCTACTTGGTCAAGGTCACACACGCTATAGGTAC :: 1.02
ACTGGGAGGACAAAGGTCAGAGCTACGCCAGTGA :: 0.253
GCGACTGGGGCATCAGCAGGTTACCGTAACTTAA :: -1.13
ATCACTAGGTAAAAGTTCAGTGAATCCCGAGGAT :: 1.36
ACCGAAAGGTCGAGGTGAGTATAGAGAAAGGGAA :: 0.807
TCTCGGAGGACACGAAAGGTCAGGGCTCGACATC :: -0.651
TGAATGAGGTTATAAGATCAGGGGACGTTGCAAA :: 0.291
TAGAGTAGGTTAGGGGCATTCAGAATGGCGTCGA :: 0.566
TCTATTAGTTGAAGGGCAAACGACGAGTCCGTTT :: 0.592
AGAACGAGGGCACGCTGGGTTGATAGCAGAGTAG :: 0.143

// each sequence listed below needs its PBM binding z-score
1. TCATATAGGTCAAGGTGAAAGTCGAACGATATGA
2. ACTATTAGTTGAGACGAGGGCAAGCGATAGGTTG
3. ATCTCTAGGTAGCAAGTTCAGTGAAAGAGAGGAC
4. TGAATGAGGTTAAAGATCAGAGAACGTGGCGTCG
5. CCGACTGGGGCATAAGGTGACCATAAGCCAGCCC

OUT:
[3.56, 0.625, 0.501, 0.333, -1.28]
